meta.source: paper PMC9911399

Assignment: determine reported binding signal for the given binders.
- System tested: T1, RBFOX1 RRM RbFoxmut (Fox-RRM*) (Homo sapiens, UniProt Q9NWB1 109-208, R118D;E147R;N151S;E152T)
- T1 sequence: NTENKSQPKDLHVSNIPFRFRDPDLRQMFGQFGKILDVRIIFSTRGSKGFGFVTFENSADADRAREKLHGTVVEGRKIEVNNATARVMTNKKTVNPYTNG
- Protocol text: EMSA; HiTS-Eq, 1 nM pool, 10 min; buffer printed only for the single-RNA assays: 10 mM Tris pH 7.5, 150 mM NaCl, 3.4 mM EDTA, 0.001% NP-40, 30 C
- Assay setup: tags: His6 N-terminal (pET28a); label: 5' 32P
In all, about 16,000 sequences were measured (“ka relative to ugcaugu”: median about 0.096, highest 2% from about 0.35 on). Shown is part of a subset that was picked to be rich in the highest values.

Input: I have this binder here, CUGAAUC (DNA:RNA) RNA: GGGAGACCGGAAUUCAGAUUGUCCCUGAAUCUUAAAUCCCGUCGUAGCCACCA DNA 1: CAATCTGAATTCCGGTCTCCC DNA 2: TGGTGGCTACGACGGGATT , and I need its recorded binding signal.
Output: 0.315 KA relative to UGCAUGU

Input: Quick one: binding signal of UUUUCUG (DNA:RNA) RNA: GGGAGACCGGAAUUCAGAUUGUCCUUUUCUGUUAAAUCCCGUCGUAGCCACCA DNA 1: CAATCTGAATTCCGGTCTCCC DNA 2: TGGTGGCTACGACGGGATT ?
Output: 0.0689 KA relative to UGCAUGU

Input: Query (binder): CCCUGAA (DNA:RNA) RNA: GGGAGACCGGAAUUCAGAUUGUCCCCCUGAAUUAAAUCCCGUCGUAGCCACCA DNA 1: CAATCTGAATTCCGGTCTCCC DNA 2: TGGTGGCTACGACGGGATT ; field requested: binding signal
Output: 0.0778 KA relative to UGCAUGU

Input: Consider the binder UGAAUGU (DNA:RNA) RNA: GGGAGACCGGAAUUCAGAUUGUCCUGAAUGUUUAAAUCCCGUCGUAGCCACCA DNA 1: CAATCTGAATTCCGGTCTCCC DNA 2: TGGTGGCTACGACGGGATT and give its measured binding signal.
Output: 0.75 KA relative to UGCAUGU
